Value source: the supplement of paper PMC10567573

# protein stability index listing for each entry below
B1: EPB41L3 (parent)
chain: KKFLTLGSKFRYSGRTQAQTRRAS

variants of: B1; test: protein stability index of a GFP-peptide fusion (GPS, HEK-293T) (PSI 1-6); higher = more stable; conditions: c terminus: a fixed tail appended;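 also: lentivirally expressed fusions sorted by FACS into six bins by GFP to DsRed ratio, PSI derived from sequencing read proportions per bin multiplied by bin number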
// keep it numeric: no unit symbol after the value

Qu. GET /values?readout=protein stability index&item= `G7N`
Ans. 2.88

Qu. Moving on to `S13W`
Ans. 2.91

Qu. Moving on to `A18E`
Ans. 3.23
